- Protocol details: Toxicity liver stage against HepG2, at 10uM
- Assay type: cell-based
- Design: test concentration 10 uM, cell line HepG2-A16-CD81EGFP
- Settings: human, HepG2-A16-CD81EGFP cells; read-out: INHIBITION
Measured parameter: cytotoxicity at 10 µM (%)
Give the quantity in %, number only.

Task: cytotoxicity at 10 µM for O=C(c1cccnc1)N1CCC2(CCN(C(=O)c3ccco3)CC2)C1 ?
Result: -91.6

Task: cytotoxicity at 10 µM for O=C(c1cccnc1)N1CCn2cc(CN3CCCC3)nc2C1 ?
Result: -74.8

Task: cytotoxicity at 10 µM for Cc1ccsc1CNC(=O)c1ccc2c(c1)CCC(=O)N2 ?
Result: 4.91

Task: cytotoxicity at 10 µM for CC(C#N)CNC(=O)Nc1ccc(-c2ccc[nH]2)cc1 (centres undefined) ?
Result: 1.2

Task: cytotoxicity at 10 µM for CC(C)C(Sc1nncn1C1CC1)C(=O)NCc1cccnc1 (centres undefined) ?
Result: -6.86

Task: cytotoxicity at 10 µM for O=c1[nH]c2cn(-c3ccc(F)cc3)c(=O)n2n1Cc1cccc(Cl)c1 ?
Result: 6.59

Task: cytotoxicity at 10 µM for O=C(NCCc1nccs1)c1n[nH]c2c1CCC2 ?
Result: 3.89

Task: cytotoxicity at 10 µM for Cc1ccc(C(=O)N2CC[C@H]3O[C@@H](c4noc(C)n4)C[C@H]3C2)o1 ?
Result: 1.92

Task: cytotoxicity at 10 µM for CN(Cc1ccco1)Cc1cnc2n1CCN(c1ncccn1)CC2 ?
Result: -0.603

Task: cytotoxicity at 10 µM for O=C(c1cccnc1O)N1CCN(CCc2cccs2)CC1 ?
Result: -8.86

Task: cytotoxicity at 10 µM for c1ccc(N2CCC(NCCc3ccc(-n4cccn4)cc3)CC2)nc1 ?
Result: 21.1

###

- Protocol details: Toxicity liver stage against HepG2, at 10uM
- Type: cell-based
- Set-up: test concentration 10 uM, cell line HepG2-A16-CD81EGFP
- Settings: human, HepG2-A16-CD81EGFP cells; read-out: INHIBITION
Measured parameter: cytotoxicity at 10 µM (%)
Give the quantity in %, number only.

[[record]]
compound = "COc1ccc(-c2cc(C3CCN(C(C)=O)CC3)ccn2)cc1"
obs_value = -5.05

[[record]]
compound = "Cc1cc(CN(C)C(=O)CN2CC3(CCNCC3)OC2=O)no1"
obs_value = 3.19

[[record]]
compound = "O=c1c2sccc2nc2n1CCN(Cc1ccsc1)CC2"
obs_value = -25.4

[[record]]
compound = "O=C(Cn1cc(NC(=O)c2ccc(F)cc2F)cn1)NC1CCCC1"
obs_value = -0.561

[[record]]
compound = "CCn1c(C2CCCN(Cc3ccnc4ccccc34)C2)nn(C)c1=O (configuration not stated)"
obs_value = -5.92


Task: cytotoxicity at 10 µM for CCc1n[nH]c(C2CN(C(=O)CCOCC(F)(F)F)CCO2)n1 (configuration not stated) ?
Result: 10.4

Task: cytotoxicity at 10 µM for CCc1n[nH]c(=O)c(C(=O)N2CCSCC2)c1CC ?
Result: 19.5

###

- Protocol details: Toxicity liver stage against HepG2, at 10uM
- Assay type: cell-based
- Design: test concentration 10 uM, cell line HepG2-A16-CD81EGFP
- Settings: human, HepG2-A16-CD81EGFP cells; read-out: INHIBITION
cytotoxicity at 10 µM values for the compounds below.
Give the quantity in %, number only.

As a guide, the following entries are already answered.
[[record]]
compound = "CC(C)C(C)NC(=O)Nc1ccc(CS(C)(=O)=O)cc1 (stereo unspecified)"
obs_value = -8.49

[[record]]
compound = "CCN1C[C@H]2CCN(Cc3ccncc3)C(=O)[C@@H]2C1"
obs_value = 5.53

[[record]]
compound = "CC(=O)N(C)Cc1cncc(C2CCCN2C2CCOCC2)n1 (stereo unspecified)"
obs_value = -5.34


Kindly review the next compound as well.
Task: cytotoxicity at 10 µM for CC(=O)N1CCC2(CCN(C(=O)c3ccc(Cl)c(C(F)(F)F)c3)CC2)C1 ?
Result: -4.48
